Reference source for all entries: paper PMC4336329

Tested Target: human ether-à-go-go-related gene (hERG) potassium channel (human, UniProt Q12809);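 note: peak tail current of the secondary pulse compared with the same well before compound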
Sequence (Q12809 whole entry, looked up): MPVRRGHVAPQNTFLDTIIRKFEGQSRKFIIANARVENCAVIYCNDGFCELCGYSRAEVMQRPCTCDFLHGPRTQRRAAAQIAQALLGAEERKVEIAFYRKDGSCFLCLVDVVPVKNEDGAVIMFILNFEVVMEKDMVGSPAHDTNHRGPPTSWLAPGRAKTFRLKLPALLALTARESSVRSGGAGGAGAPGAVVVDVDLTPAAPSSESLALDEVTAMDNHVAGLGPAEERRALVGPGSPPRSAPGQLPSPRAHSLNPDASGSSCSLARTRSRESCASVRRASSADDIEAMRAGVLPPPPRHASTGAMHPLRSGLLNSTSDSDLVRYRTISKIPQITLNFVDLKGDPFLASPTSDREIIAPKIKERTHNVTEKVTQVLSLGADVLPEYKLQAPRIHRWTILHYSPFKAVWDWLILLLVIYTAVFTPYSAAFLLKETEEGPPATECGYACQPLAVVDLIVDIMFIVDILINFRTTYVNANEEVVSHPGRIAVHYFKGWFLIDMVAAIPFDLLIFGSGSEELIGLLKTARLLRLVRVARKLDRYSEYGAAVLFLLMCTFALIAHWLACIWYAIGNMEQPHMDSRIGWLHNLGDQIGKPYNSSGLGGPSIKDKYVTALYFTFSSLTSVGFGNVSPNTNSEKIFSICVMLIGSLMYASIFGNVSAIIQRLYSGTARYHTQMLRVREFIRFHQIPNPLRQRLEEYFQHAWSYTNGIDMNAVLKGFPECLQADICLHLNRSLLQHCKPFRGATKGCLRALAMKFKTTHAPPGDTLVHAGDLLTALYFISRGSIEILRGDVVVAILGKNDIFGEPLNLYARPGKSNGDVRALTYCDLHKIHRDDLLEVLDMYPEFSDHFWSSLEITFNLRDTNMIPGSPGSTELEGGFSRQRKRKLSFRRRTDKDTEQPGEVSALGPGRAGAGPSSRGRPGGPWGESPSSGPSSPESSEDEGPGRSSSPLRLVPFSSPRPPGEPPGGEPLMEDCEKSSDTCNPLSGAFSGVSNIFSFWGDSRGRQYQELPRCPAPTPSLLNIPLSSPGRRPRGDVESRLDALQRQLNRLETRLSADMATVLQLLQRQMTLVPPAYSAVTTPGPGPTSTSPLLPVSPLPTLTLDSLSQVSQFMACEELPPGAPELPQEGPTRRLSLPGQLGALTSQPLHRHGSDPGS
Assay Method Text: primary screen, population patch clamp on CHO cells stably expressing hERG; higher = less effect of the substance
Out of some 310,000 compounds screened, about 14,000 (4.5%) showed an effect of 50% or more. The effect is printed as a negative number. This excerpt belongs to a sample that is enriched for strong results.
Measurement Name: hERG current change (%, negative = inhibition) at 10uM

Ask: Which hERG current change (%, negative = inhibition) at 10uM value is on record for O=C(CN1C(=O)NC(c2ccccc2)(c2ccccc2)C1=O)NCc1ccccc1 ?
Reply: -31%

Ask: Fill in the blank: the reported hERG current change (%, negative = inhibition) at 10uM of CC(C)c1nnc(NC(=O)c2nc(S(=O)(=O)Cc3ccccc3F)ncc2Cl)s1 is ____.
Reply: -5.79%

Ask: Name the reported hERG current change (%, negative = inhibition) at 10uM value associated with the compound CC(C(=O)NC(N)=O)N1C(=O)NC(c2ccccc2)(c2ccccc2)C1=O (stereo not drawn)
Reply: -14.9%
